Source listed as patent US6794388B2.

test_summary: aqueous solubility
Format: physicochemical
condition_info: simulated gastric fluid; in 0.1 N HCl
Structures can show the parent of a compound that is named as a salt.
measure: solubility

Form field: reported solubility of c1cnc2cc3c(cc2n1)C1CNCC3C1 [anhydrous succinate salt]
> 10000 µg/mL

----------
test_summary: aqueous solubility
Type: physicochemical
condition_info: water
Counter-ions that a name gives are not always drawn.
measure: solubility
For clarity, give the value followed by its unit.

For the compound c1cnc2cc3c(cc2n1)C1CNCC3C1 [anhydrous succinate salt] , what solubility is on record?
442 mg/mL

----------
test_summary: aqueous solubility
Format: physicochemical
condition_info: aqueous buffer; in 0.1 N NaOH
Protocol: Although in general the acid addition salts of 5,8,14-triazatetracyclo[10.3.1.0^2,11.0^4,9]-hexadeca-2(11),3,5,7,9-pentaene are all crystalline, the majority of those salts are so hygroscopic as to render them poor candidates for pharmaceutical formulation use. The aqueous solubility of the anhydrous succinate salt has been measured under various conditions: >10 mg/mL in pH 4 buffer; >10 mg/mL in pH 10 buffer; >10 mg/mL in 0.1 N HCl; and >10 mg/mL in 0.1 N NaOH. […]
Structures can show the parent of a compound that is named as a salt.
measure: solubility

Fill in: solubility of c1cnc2cc3c(cc2n1)C1CNCC3C1 [anhydrous succinate salt] is ___
> 10000 µg/mL
